Hey, just so you know, these numbers are from the supplement of paper PMC12667976.

AIRE transcriptional activation functional score values, listed per item
B1: library; numbered along this chain (parent)
chain: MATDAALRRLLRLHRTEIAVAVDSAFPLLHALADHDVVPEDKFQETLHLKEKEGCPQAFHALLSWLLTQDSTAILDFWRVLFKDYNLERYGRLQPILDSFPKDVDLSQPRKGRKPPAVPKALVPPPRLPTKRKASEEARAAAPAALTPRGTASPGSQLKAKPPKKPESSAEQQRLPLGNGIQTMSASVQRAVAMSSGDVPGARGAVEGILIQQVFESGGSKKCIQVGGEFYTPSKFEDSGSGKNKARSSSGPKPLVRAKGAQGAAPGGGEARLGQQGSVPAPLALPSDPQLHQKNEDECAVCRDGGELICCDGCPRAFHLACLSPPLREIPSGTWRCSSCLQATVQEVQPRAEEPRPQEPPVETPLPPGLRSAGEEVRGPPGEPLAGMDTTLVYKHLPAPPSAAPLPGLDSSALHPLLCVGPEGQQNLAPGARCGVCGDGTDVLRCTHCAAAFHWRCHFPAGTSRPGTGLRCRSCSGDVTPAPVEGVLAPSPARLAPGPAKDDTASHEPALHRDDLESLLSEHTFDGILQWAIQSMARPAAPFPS

# Variants of: B1
# Test protocol: AIRE transcriptional activation functional score (insulin promoter-GFP; nonsense median 0, synonymous median 1) (normalised score); higher = higher AIRE activity (more reporter activation)
# Particulars: with insulin promoter-GFP reporter in HEK293
Reply: number alone, nothing else.

Exercise: # input variant: `G228R` ; wanted: its AIRE transcriptional activation functional score
Key: 1.26
